pIC50 for assorted compounds
System: malignant glioma cell line (U-87MG)
Procedure text: Cell viability of U-87MG glioma cells, modified MTT assay, 24 hours
Assay type: cell-based
Experimental context: U-87MG cell viability (FIG. 1)
pIC50: −log10 of the molar value.
Measured parameter: pIC50

[[record]]
compound = "[Cl][Pt-2]([Cl])([Cl])[Cl].[K+].[K+] [K2PtCl4, potassium tetrachloroplatinate]"
measured_parameter = "pIC50"
reported_result = 4.15

[[record]]
compound = "N.N.[Cl][Pt][Cl] [cisplatin]"
measured_parameter = "pIC50"
reported_result = 4.33

